# experimentalSystem: Anti-CD28 scFv (VH-linker 1-VL) (biotinylated for capture on neutravidin plates)
# Sequence (scFv, as listed by the source): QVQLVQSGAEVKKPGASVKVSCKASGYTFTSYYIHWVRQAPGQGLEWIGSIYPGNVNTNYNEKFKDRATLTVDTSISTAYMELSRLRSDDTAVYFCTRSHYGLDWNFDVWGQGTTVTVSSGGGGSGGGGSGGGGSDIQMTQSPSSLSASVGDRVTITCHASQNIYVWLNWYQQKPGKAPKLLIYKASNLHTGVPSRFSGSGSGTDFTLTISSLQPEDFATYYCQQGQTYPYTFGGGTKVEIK
# testDetails: phage ELISA, scFv captured on plate;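 also: crude clonal phage supernatants added to wells preincubated with soluble CD28 or with blocking buffer only, bound phage read out by HRP-linked anti-M13 antibody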
# Phage binding ELISA CD28 scFv signal per record follows
Number, no unit, nothing else.

>  <binder>
MFWCPFDMWHFCFN [Phage-200]

>  <Phage binding ELISA CD28 scFv signal>
2.29

$$$$
>  <binder>
MDWCPRYLWDACFF [Phage-130]

>  <Phage binding ELISA CD28 scFv signal>
2.34

$$$$
>  <binder>
MDWCPRDLWHVCFF [Phage-121]

>  <Phage binding ELISA CD28 scFv signal>
2.41

$$$$

Qu. Can you look up the measured Phage binding ELISA CD28 scFv signal of MDWCPRYMWYQCFS [Phage-196] for me?
Ans. 2.36
